Source of measurements: the supplement of paper PMC9112550

# System: Escherichia coli TOP10
# experimentalDetails: shrunken log2 fold change of peptide-encoding DNA abundance (4.5 h post-induction vs induction); higher = less antimicrobial activity (less host growth inhibition)
# particulars: time post-induction: 4.5 h; library: site-saturation at positions 5, 18, 19, 20
Binning rule for recorded shrunken log2 fold change: low (below -0.3), medium (-0.3 to below 0.1), high (0.1 or more)

constructsequence=RRIRMRPPRLPRPRPRPYREPRP label=medium
constructsequence=RRIRIRPPRLPRPRPRPWKPPRP label=medium
constructsequence=RRIRPRPPRLPRPRPRPDNVPRP label=high
constructsequence=RRIRYRPPRLPRPRPRPENKPRP label=low
constructsequence=RRIRSRPPRLPRPRPRPDAWPRP label=high
constructsequence=RRIRPRPPRLPRPRPRPYKNPRP label=low
constructsequence=RRIRHRPPRLPRPRPRPDHAPRP label=medium
constructsequence=RRIRRRPPRLPRPRPRPLPTPRP label=high
constructsequence=RRIRNRPPRLPRPRPRPKLYPRP label=medium
constructsequence=RRIRYRPPRLPRPRPRPQMAPRP label=low
constructsequence=RRIRTRPPRLPRPRPRPLDSPRP label=medium
constructsequence=RRIRARPPRLPRPRPRPMRVPRP label=high
constructsequence=RRIRVRPPRLPRPRPRPNRAPRP label=high
constructsequence=RRIRQRPPRLPRPRPRPNWYPRP label=medium
constructsequence=RRIRIRPPRLPRPRPRPCMAPRP label=low

----------
# System: Escherichia coli TOP10;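 note: peptides expressed intracellularly from a pBAD plasmid library in pooled LB shake-flask culture, induced with 0.3% L-arabinose, DNA abundance read by NGS, three biological replicates, DESeq2 with apeglm shrinkage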
# experimentalDetails: shrunken log2 fold change of peptide-encoding DNA abundance (4.5 h post-induction vs induction); higher = less antimicrobial activity (less host growth inhibition)
# particulars: time post-induction: 4.5 h; library: site-saturation at positions 5, 18, 19, 20
propertyName: shrunken log2 fold change

constructsequence=RRIRMRPPRLPRPRPRPHRLPRP valuemeasured=0.108
constructsequence=RRIRARPPRLPRPRPRPPGRPRP valuemeasured=0.742
constructsequence=RRIRQRPPRLPRPRPRPCRKPRP valuemeasured=0.0642
constructsequence=RRIRNRPPRLPRPRPRPMISPRP valuemeasured=-0.0707
constructsequence=RRIRMRPPRLPRPRPRPMWGPRP valuemeasured=0.285
constructsequence=RRIRLRPPRLPRPRPRPGRYPRP valuemeasured=-0.124
constructsequence=RRIRFRPPRLPRPRPRPSIIPRP valuemeasured=-0.279
constructsequence=RRIRSRPPRLPRPRPRPCMAPRP valuemeasured=-0.182
constructsequence=RRIRCRPPRLPRPRPRPTIIPRP valuemeasured=-0.343
constructsequence=RRIRRRPPRLPRPRPRPVQKPRP valuemeasured=0.223
constructsequence=RRIRIRPPRLPRPRPRPDTWPRP valuemeasured=-0.239
constructsequence=RRIRKRPPRLPRPRPRPPVRPRP valuemeasured=0.265
constructsequence=RRIRKRPPRLPRPRPRPPVFPRP valuemeasured=-0.00134
constructsequence=RRIRTRPPRLPRPRPRPNDRPRP valuemeasured=0.21
constructsequence=RRIRSRPPRLPRPRPRPMQIPRP valuemeasured=0.141
constructsequence=RRIRRRPPRLPRPRPRPIWVPRP valuemeasured=0.222
constructsequence=RRIRDRPPRLPRPRPRPKLPPRP valuemeasured=0.0818
constructsequence=RRIRNRPPRLPRPRPRPSVNPRP valuemeasured=-0.201
constructsequence=RRIRVRPPRLPRPRPRPLLIPRP valuemeasured=-0.304
constructsequence=RRIRYRPPRLPRPRPRPIENPRP valuemeasured=-0.0122
constructsequence=RRIRQRPPRLPRPRPRPACKPRP valuemeasured=-0.0465
constructsequence=RRIRRRPPRLPRPRPRPKSFPRP valuemeasured=0.0604
constructsequence=RRIRSRPPRLPRPRPRPVKEPRP valuemeasured=0.0656
constructsequence=RRIRCRPPRLPRPRPRPADKPRP valuemeasured=-0.0716
constructsequence=RRIRDRPPRLPRPRPRPDSWPRP valuemeasured=0.0194
constructsequence=RRIRERPPRLPRPRPRPGFCPRP valuemeasured=-0.122
constructsequence=RRIRTRPPRLPRPRPRPLATPRP valuemeasured=0.0927
constructsequence=RRIRFRPPRLPRPRPRPFVFPRP valuemeasured=-0.454
constructsequence=RRIRHRPPRLPRPRPRPIMTPRP valuemeasured=-0.895
constructsequence=RRIRHRPPRLPRPRPRPKFRPRP valuemeasured=-0.317
constructsequence=RRIRARPPRLPRPRPRPAGMPRP valuemeasured=0.432
constructsequence=RRIRYRPPRLPRPRPRPYCVPRP valuemeasured=-1.71
constructsequence=RRIRPRPPRLPRPRPRPSCQPRP valuemeasured=-0.733
constructsequence=RRIRTRPPRLPRPRPRPISKPRP valuemeasured=-0.17
constructsequence=RRIRERPPRLPRPRPRPMDFPRP valuemeasured=-0.0298
constructsequence=RRIRSRPPRLPRPRPRPNFAPRP valuemeasured=0.245
constructsequence=RRIRIRPPRLPRPRPRPGKNPRP valuemeasured=-0.597
constructsequence=RRIRARPPRLPRPRPRPFLTPRP valuemeasured=0.085
constructsequence=RRIRQRPPRLPRPRPRPEHDPRP valuemeasured=-0.0684
constructsequence=RRIRNRPPRLPRPRPRPVTHPRP valuemeasured=0.0124
constructsequence=RRIRLRPPRLPRPRPRPLKKPRP valuemeasured=0.162
constructsequence=RRIRRRPPRLPRPRPRPMSCPRP valuemeasured=0.0813
constructsequence=RRIRYRPPRLPRPRPRPKAPPRP valuemeasured=0.291
constructsequence=RRIRERPPRLPRPRPRPPCGPRP valuemeasured=0.259
constructsequence=RRIRIRPPRLPRPRPRPPTDPRP valuemeasured=1.33
constructsequence=RRIRCRPPRLPRPRPRPEEVPRP valuemeasured=0.362
constructsequence=RRIRVRPPRLPRPRPRPCRMPRP valuemeasured=-0.0641
constructsequence=RRIRYRPPRLPRPRPRPPQEPRP valuemeasured=1.9
constructsequence=RRIRKRPPRLPRPRPRPCMWPRP valuemeasured=-0.189
constructsequence=RRIRNRPPRLPRPRPRPYAHPRP valuemeasured=-0.176
constructsequence=RRIRHRPPRLPRPRPRPQIEPRP valuemeasured=-0.24
constructsequence=RRIRIRPPRLPRPRPRPQGIPRP valuemeasured=-0.012
constructsequence=RRIRMRPPRLPRPRPRPGELPRP valuemeasured=-0.0122
constructsequence=RRIRMRPPRLPRPRPRPPADPRP valuemeasured=2.99
constructsequence=RRIRGRPPRLPRPRPRPGFLPRP valuemeasured=0.41
constructsequence=RRIRCRPPRLPRPRPRPCMKPRP valuemeasured=-0.368
